The measured values listed here are drawn from the kinase profiling compilation of Christmann-Franck et al. (2016).

# assay system: FGFR2 (human) (UniProt P21802)
# Sequence (P21802 whole entry, looked up): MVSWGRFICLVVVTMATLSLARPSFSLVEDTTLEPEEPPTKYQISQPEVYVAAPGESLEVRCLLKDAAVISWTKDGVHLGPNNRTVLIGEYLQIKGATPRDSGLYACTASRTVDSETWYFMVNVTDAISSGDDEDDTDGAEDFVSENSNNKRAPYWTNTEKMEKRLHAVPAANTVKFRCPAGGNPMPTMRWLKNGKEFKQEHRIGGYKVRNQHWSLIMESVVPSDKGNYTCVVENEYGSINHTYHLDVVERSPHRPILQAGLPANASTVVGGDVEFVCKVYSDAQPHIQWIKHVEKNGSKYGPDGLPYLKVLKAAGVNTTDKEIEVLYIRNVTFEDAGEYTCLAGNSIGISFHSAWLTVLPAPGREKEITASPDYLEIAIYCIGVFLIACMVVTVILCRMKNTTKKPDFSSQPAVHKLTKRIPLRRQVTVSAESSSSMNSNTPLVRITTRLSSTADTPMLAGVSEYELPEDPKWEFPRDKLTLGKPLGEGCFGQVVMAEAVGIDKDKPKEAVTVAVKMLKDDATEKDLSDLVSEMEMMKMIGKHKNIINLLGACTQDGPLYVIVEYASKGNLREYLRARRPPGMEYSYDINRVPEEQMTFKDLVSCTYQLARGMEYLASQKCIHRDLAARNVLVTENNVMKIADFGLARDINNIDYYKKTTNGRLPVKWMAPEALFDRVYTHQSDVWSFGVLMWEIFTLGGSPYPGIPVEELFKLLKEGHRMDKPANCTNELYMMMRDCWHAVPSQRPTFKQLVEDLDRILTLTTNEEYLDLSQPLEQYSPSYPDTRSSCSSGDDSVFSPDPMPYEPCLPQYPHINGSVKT
# experiment summary: KINOMEscan competition binding
# conditions: compound 10.0 µM
Label yes when kinase still bound, per cent of control is strictly below 40%; at or above that, label no.

See these solved cases before continuing.
CCN1CCN(C(=O)Cc2ccc(Nc3ncc(F)c(Nc4ccc(C(=O)Nc5ccccc5Cl)cc4)n3)cc2)CC1 = yes
CNC(=O)c1ccc(Nc2cc(Nc3ccccc3S(=O)(=O)C(C)C)c3cc[nH]c3n2)nc1 = yes
Cc1n[nH]c2ccc(-c3cncc(OC[C@@H](N)Cc4c[nH]c5ccccc45)c3)cc12 = no
COc1cc(N2CCN(C)CC2)ccc1Nc1ncc2c(n1)N(C)c1ccccc1C(=O)N2C = no
CN(C)C/C=C/C(=O)Nc1ccc(C(=O)Nc2cccc(Nc3nccc(-c4cccnc4)n3)c2)cc1 = no
COCC(=O)NC/C=C/c1ccc2ncnc(Nc3ccc(Oc4ccc(C)nc4)c(C)c3)c2c1 = no
COc1cc2ncnc(-n3nc(-c4ccccn4)nc3N)c2cc1OC = no
C=CC(=O)Nc1ccc(CN(C(=O)Nc2c(Cl)c(OC)cc(OC)c2Cl)c2cc(Nc3ccc(N4CCN(C)CC4)cc3)ncn2)cc1 = yes

Here's the next entry for you.
kinase still bound, per cent of control strictly < 40% for this molecule? `C[C@@H](Oc1cc(-c2cnn(C3CCNCC3)c2)cnc1N)c1c(Cl)ccc(F)c1Cl`
yes
